meta.source: the RNAGym collection of RNA variant scans (doi:10.1021/acssynbio.7b00057)

B1: Pistol ribozyme (parent)
chain: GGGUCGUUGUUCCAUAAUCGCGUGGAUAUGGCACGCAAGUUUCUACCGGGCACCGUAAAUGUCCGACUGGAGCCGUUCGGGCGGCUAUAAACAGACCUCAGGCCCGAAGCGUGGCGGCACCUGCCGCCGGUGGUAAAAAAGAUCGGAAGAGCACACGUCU

Variants of: B1
assay: aptazyme ON/OFF ratio, guanine; higher = stronger switching; co-transcriptional cleavage with and without guanine
A collection of variants and their measured aptazyme ON/OFF ratio

[
  {
    "variant description": "U7A U8G G9C U10C U11G C13A",
    "aptazyme ON/OFF ratio": 1.25
  },
  {
    "variant description": "U8A G9A U10A U11C C12U C13U",
    "aptazyme ON/OFF ratio": 1.15
  },
  {
    "variant description": "U7A U8A U10A U11C C12A",
    "aptazyme ON/OFF ratio": 1.04
  },
  {
    "variant description": "U7C G9C U10G U11C C12G C13A",
    "aptazyme ON/OFF ratio": 1.16
  },
  {
    "variant description": "G9U U11A C12A C13G",
    "aptazyme ON/OFF ratio": 1.31
  },
  {
    "variant description": "U7A U8A G9A U11A C12G C13G",
    "aptazyme ON/OFF ratio": 1.28
  },
  {
    "variant description": "U7A G9A U10C U11C C12A C13U",
    "aptazyme ON/OFF ratio": 1.12
  },
  {
    "variant description": "U7C U8A G9C U10G U11G",
    "aptazyme ON/OFF ratio": 1.1
  },
  {
    "variant description": "U7A U10C C12G",
    "aptazyme ON/OFF ratio": 1.42
  },
  {
    "variant description": "U7A U8C G9U U10C U11A C12U C13G",
    "aptazyme ON/OFF ratio": 1.09
  },
  {
    "variant description": "U7C U10G U11C C12U C13A",
    "aptazyme ON/OFF ratio": 1.28
  },
  {
    "variant description": "U7A U11G C12U C13A",
    "aptazyme ON/OFF ratio": 1.15
  },
  {
    "variant description": "U7G U8A G9U U11A C12G C13A",
    "aptazyme ON/OFF ratio": 1.06
  },
  {
    "variant description": "U7A U10A U11C C12G C13U",
    "aptazyme ON/OFF ratio": 1.1
  },
  {
    "variant description": "U7C U8G G9C U11A C13U",
    "aptazyme ON/OFF ratio": 1.26
  },
  {
    "variant description": "U7G U8G G9A U10C U11G C13U",
    "aptazyme ON/OFF ratio": 1.19
  },
  {
    "variant description": "U7G U8C G9U U10C U11C",
    "aptazyme ON/OFF ratio": 1.32
  },
  {
    "variant description": "U7G U8G G9A U10C U11G C12U",
    "aptazyme ON/OFF ratio": 1.34
  },
  {
    "variant description": "U8A G9C U10A U11A C12A C13G",
    "aptazyme ON/OFF ratio": 1.19
  },
  {
    "variant description": "U7A U8G G9U U10C U11C C12U C13U",
    "aptazyme ON/OFF ratio": 1.23
  },
  {
    "variant description": "U7C U8C U10A U11A C12A",
    "aptazyme ON/OFF ratio": 1.19
  },
  {
    "variant description": "U7A U8A U10A U11G C12U C13U",
    "aptazyme ON/OFF ratio": 1.31
  }
]
